# system-tested: PAD1 (Homo sapiens)
# Construct: made in house
# Sequence (Q9ULC6 1-663): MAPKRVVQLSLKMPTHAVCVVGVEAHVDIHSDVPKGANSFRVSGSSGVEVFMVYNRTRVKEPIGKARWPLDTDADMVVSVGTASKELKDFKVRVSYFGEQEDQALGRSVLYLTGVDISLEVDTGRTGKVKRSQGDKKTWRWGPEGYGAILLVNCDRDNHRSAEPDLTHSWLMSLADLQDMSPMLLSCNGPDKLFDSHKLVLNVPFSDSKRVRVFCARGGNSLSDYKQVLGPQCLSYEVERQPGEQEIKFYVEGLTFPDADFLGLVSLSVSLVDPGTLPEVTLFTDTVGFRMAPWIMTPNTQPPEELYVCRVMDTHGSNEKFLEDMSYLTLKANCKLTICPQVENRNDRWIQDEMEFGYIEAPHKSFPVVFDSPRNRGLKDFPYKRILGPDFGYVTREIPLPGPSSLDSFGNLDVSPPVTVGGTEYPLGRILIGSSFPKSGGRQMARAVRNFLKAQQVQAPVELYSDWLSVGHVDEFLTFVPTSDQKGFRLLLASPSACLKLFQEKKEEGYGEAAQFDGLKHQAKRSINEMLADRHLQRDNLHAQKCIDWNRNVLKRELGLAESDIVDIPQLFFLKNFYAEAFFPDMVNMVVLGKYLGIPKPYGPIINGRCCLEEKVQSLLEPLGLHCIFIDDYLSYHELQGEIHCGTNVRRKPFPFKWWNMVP
# measurement-description: Target engagement assay: labelling of PAD1 in HEK293TPAD1 cells with 21 in the presence of inhibitor
# Type: cell-based
# measurement-context: 5 μM of 21, 3 h, read-out: EC50 of inhibition of labelling of PAD1 by 21
measured-endpoint: EC50 (µM)

• N=C(CF)NCCC[C@H](NC(=O)c1cc(I)cc(I)c1O)c1nc2ccccc2[nH]1 [Compound 1] = 12.7

---

# system-tested: PAD1 (Homo sapiens, UniProt Q9ULC6)
# Construct: made in house
# Sequence (Q9ULC6 1-663): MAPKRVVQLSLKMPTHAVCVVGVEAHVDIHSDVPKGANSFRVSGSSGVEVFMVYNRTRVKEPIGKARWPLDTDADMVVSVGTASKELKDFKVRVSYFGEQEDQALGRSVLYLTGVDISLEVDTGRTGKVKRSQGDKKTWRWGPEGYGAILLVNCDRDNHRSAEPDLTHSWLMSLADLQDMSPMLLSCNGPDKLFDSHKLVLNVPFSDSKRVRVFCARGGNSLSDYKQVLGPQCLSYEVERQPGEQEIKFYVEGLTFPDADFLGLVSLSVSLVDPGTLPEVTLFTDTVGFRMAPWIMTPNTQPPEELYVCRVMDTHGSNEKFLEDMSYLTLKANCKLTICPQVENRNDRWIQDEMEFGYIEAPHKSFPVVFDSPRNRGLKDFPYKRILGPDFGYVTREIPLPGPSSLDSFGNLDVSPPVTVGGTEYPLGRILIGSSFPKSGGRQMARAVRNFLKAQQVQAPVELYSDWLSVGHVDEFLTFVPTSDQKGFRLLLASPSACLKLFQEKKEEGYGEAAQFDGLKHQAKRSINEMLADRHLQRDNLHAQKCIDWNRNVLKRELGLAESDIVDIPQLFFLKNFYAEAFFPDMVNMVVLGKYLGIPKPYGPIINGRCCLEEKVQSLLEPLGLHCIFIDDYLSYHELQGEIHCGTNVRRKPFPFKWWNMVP
# measurement-description: Inactivation kinetics of PAD1 (COLDER citrulline assay)
# Format: biochemical
# measurement-context: PAD1 over the other PADs; bracketed value under kinact/KI
Please use true whenever Fold PAD selectivity is not below 10 fold, and false whenever it is.

• N=C(CF)NCCC[C@H](NC(=O)c1cccc(I)c1O)c1nc2ccccc2[nH]1 = false
• N=C(CF)NCCC[C@H](NC(=O)c1cc(Br)cc(Br)c1O)c1nc2ccccc2[nH]1 = true
• N=C(CF)NCCC[C@H](NC(=O)c1cc(I)ccc1O)c1nc2ccccc2[nH]1 = true
• N=C(CF)NCCC[C@H](NC(=O)c1cc(I)c(F)c(I)c1O)c1nc2ccccc2[nH]1 = true
• N=C(CF)NCCC[C@H](NC(=O)c1cc(I)cc(I)c1O)c1nc2ccccc2[nH]1 = true

Reference source for all entries: patent US12448358B2
